Target of assay: T1, TGFβ1 (R&D Systems)
T1 construct: also called TGFB1
T1 sequence (P01137 279-390): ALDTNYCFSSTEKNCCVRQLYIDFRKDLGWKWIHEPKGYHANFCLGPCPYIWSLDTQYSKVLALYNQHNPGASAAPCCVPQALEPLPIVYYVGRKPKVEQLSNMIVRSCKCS
Experiment notes: SPR full titration
Here the recorded pKd is given for each entry.
Would you please state pKd, meaning minus log10 of the concentration in mol/L, as a bare number?

Illustrative cases are given below, each with its answer.
binder="affinity matured HcLb 188 (antibody, V domains shown, full IgG; constant regions not restated) VH: EVQLVQSGAEVKKPGASVKVSCKTSGYTFITYWMNWVRQAPGAGLDWMGQIFPAWGSTNYNEMFEGRVTLTADTSTSTAYMELSSLRAGDIAVYYCARGYGNYALDAMDYWGQGTLVTVSS VL: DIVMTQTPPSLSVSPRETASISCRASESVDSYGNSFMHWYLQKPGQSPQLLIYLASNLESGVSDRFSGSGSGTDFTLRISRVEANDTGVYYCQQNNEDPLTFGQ" recorded_value=8.40
binder="affinity matured HcLb 233 (antibody, V domains shown, full IgG; also called canHcLb/55SW/100DY/57/SM + canHcLb/237ND/242TS) VH: EVQLVQSGAEVKKPGASVKVSCKTSGYTFITYWMNWVRQAPGAGLDWMGQIFPAWGMTNYNEMFEGRVTLTADTSTSTAYMELSSLRAGDIAVYYCARGYGNYALDAMDYWGQGTLVTVSS VL: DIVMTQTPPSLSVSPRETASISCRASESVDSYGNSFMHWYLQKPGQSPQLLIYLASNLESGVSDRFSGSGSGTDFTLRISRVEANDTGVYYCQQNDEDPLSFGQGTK" recorded_value=8.69
binder="affinity matured HcLb 239 (antibody, V domains shown, full IgG; also called canHcLb/55SW/100DY/31/TK + canHcLb/237ND/242TS) VH: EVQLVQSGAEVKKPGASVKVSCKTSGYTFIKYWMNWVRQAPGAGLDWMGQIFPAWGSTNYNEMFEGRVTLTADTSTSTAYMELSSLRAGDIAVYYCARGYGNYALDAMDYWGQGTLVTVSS VL: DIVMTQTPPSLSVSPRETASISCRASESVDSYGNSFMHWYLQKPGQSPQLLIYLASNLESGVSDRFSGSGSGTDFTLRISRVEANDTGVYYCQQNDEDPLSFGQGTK" recorded_value=8.45
binder="affinity matured HcLb 269 (antibody, V domains shown, full IgG; also called canHcLb/55SW/100DY/57SM/30IM + canHcLb/237ND/242TS) VH: EVQLVQSGAEVKKPGASVKVSCKTSGYTFMTYWMNWVRQAPGAGLDWMGQIFPAWGMTNYNEMFEGRVTLTADTSTSTAYMELSSLRAGDIAVYYCARGYGNYALDAMDYWGQGTLVTVSS VL: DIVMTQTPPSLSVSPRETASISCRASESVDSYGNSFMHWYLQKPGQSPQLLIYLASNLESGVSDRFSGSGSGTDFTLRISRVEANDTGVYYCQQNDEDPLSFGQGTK" recorded_value=8.36

Kindly review the next binder as well.
Record affinity matured HcLb 272 (antibody, V domains shown, full IgG; also called canHcLb/55SW/100DY/57SM/30IM/31TF/28TK + canHcLb/237ND/242TS) VH: EVQLVQSGAEVKKPGASVKVSCKTSGYKFMFYWMNWVRQAPGAGLDWMGQIFPAWGMTNYNEMFEGRVTLTADTSTSTAYMELSSLRAGDIAVYYCARGYGNYALDAMDYWGQGTLVTVSS VL: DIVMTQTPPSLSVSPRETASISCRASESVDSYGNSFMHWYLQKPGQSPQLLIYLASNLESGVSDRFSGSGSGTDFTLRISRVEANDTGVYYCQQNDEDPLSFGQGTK , field pKd: 8.62
